format: physicochemical; details: 2,4-D isopropylamine salt 300 g/l, solvent addition 5% by volume; 25° C., day of preparation
endpoint name: External appearance of formulation [25° C.; on day of preparation]

Answered examples (5):
CC(=O)N1CCCCCC1=O; clear solution
CN1CCCC1=O; clear solution
COCC(C)OCC(C)OC (stereo not drawn); clear solution
COCCOCCOCCOC; clear solution
COCCOCCOCCOCCOC; clear solution

Let us examine a further case.
# input Field request: External appearance of formulation [25° C.; on day of preparation] | item: CCCCCCCCCC(=O)N(C)C [Genagen 4296, N,N-dimethylcapramide]
# output clear solution

====

Type: physicochemical
Conditions: 2,4-D isopropylamine salt 300 g/l, solvent 5% by volume; 5% dilution in water, 24 hours, 30° C.
From the text: In the form of its amine salts, 2,4-dichlorophenoxyacetic acid tends to crystallize out of concentrated solutions. It is state of the art to use an approximately 5% addition of NMP in order to prevent crystallization. In the present example the isopropylamine salt of 2,4-dichlorophenoxyacetic acid was used, 2,4-D IPA for short. […]
endpoint name: Crystal formation in dilution [5% in water; 24 hours, 30° C.]

Below: 5 compounds and their reported Crystal formation in dilution [5% in water; 24 hours, 30° C.].
COCC(C)OCC(C)OC (stereo not drawn); <1%
COCCOCCOCCOC; >1%
CCCCCCCCCC(=O)N(C)C [Genagen 4296, N,N-dimethylcapramide]; <1%
CC(=O)N1CCCCCC1=O; no crystals
CN1CCCC1=O; no crystals

Proceed to the following item.
# input Reported Crystal formation in dilution [5% in water; 24 hours, 30° C.], compound COCCOCCOCCOCCOC : ____
# output <1%

====

type: physicochemical; details: 2,4-D isopropylamine salt 300 g/l, solvent 5% by volume; 5% (v/v) dilution in water, 500 ppm CaCO3
endpoint name: External appearance of dilution [5% in water]

COCCOCCOCCOCCOC [Tetraethylene glycol dimethyl ether]; clear
CN1CCCC1=O [N-Methylpyrrolidone, N-Methyl-2-pyrrolidone]; clear
COCC(C)OCC(C)OC (stereo not drawn) [Dipropylene glycol dimethyl ether]; clear
CC(=O)N1CCCCCC1=O [Peractive LAC, acetylcaprolactam]; clear

# input What measured External appearance of dilution [5% in water] goes with COCCOCCOCCOC [Triethylene glycol dimethyl ether] ?
# output clear
